Data credit: ChEMBL document CHEMBL2218924

For each entry below, report its residual activity value.
# TARGET OR SYSTEM: Casein kinase I isoform delta (Homo sapiens)
# TEST CONDITIONS: at 1 µM
# Description: Millipore: Percentage of residual kinase activity of CSNK1D at 1uM relative to control. Control inhibitor: Jnk Inhibitor II at 100.0uM. Buffer: 8 mM MOPS pH 7.0, 0.2 mM EDTA
Use % as the unit, but write only the number.

Task item: Specify residual activity for `COC(=O)[C@@]1(O)C[C@H]2O[C@]1(C)n1c3ccccc3c3c4c(c5c6ccccc6n2c5c31)C(=O)NC4` and stop.
Reply: 79

Task item: Name the recorded residual activity of the molecule listed here: `COc1ccc2c(c1)/C(=C/c1cnc[nH]1)C(=O)N2`
Reply: 81

Task item: Fill in residual activity for record `O=c1[nH]c2ccccc2n1C1CCN(Cc2ccc(-c3nc4cc5[nH]cnc5cc4nc3-c3ccccc3)cc2)CC1`
Reply: 84

Task item: Report measured residual activity; entry is `O=C1NC(=O)c2c1c1c3ccccc3n3c1c1c2c2ccccc2n1C1CCC3O1`
Reply: 75

Task item: Give the value of residual activity reported for the following: `c1cc(-c2cnn3cc(-c4ccc(OCCN5CCCCC5)cc4)cnc23)ccn1`
Reply: 21

Task item: Give residual activity for `O=C1Nc2ccc3ncsc3c2/C1=C/c1c[nH]cn1`
Reply: 23

Task item: Quickly give me recorded residual activity for `CN[C@@H]1C[C@H]2O[C@@](C)([C@@H]1OC)n1c3ccccc3c3c4c(c5c6ccccc6n2c5c31)C(=O)NC4`
Reply: 77

Task item: Find the measured residual activity of `N/C(=N\[N+](=O)[O-])N/N=C\c1ccc(-c2cccc([N+](=O)[O-])c2)o1` and report it.
Reply: 80

Task item: Give a short answer stating reported residual activity for `COc1cc(OC)c(/C=C2\C(=O)Nc3ccccc32)c(OC)c1` .
Reply: 37

Task item: Give the reported residual activity for this molecule. `COc1cc2ncnc(Nc3ccc(OCc4ccccc4)cc3)c2cc1OC`
Reply: 77
